These measurements were taken from ChEMBL document CHEMBL3301361.

Assay: in vitro
Conditions: human, hepatocytes
Grouping rule (hepatocyte CLint): group A = under 20 µL/min/1e6 cells, group B = from 20 µL/min/1e6 cells up to 30 µL/min/1e6 cells, group C = 30 µL/min/1e6 cells and over

Answered cases to consult:
O=C(O)COc1ccc(C(F)(F)F)cc1CN1CCN(S(=O)(=O)c2ccccc2)CC1 : group A
CN1CCN(c2nc3ccccc3cc2Cn2nc(-c3ccc4nc(N)sc4c3)c3c(N)ncnc32)CC1 : group A
N#CCC(CNc1ncc(C(F)(F)F)cc1Cl)OC(=O)c1c(F)cccc1F (centres undefined) : group C

Would you mind sorting Cc1nccn1CC1CCc2c(c3ccccc3n2C)C1=O (centres undefined) into the appropriate category?
group A

What about COC(=O)c1ccc(C)c(NS(=O)(=O)c2ccc3c(c2)c(=O)sn3C)c1 ?
group C

What about O=S(=O)(Nc1ccc2sc(CO)nc2c1)c1ccc(Br)cc1 ?
group B

----------
Readings of solubility thermodynamic for the listed compounds
Assay: physchem
Conditions: pH 7.4 buffer
Only the number, expressed in µM, is required.

Here is how some compounds turned out for solubility thermodynamic.
Cc1ncc(-c2ccc([C@H]3CC[C@H](CC(=O)O)CC3)cc2)nc1C(N)=O : 372
COc1cc2nccc(Oc3ccc(NC(=O)Nc4cc(C)on4)c(Cl)c3)c2cc1OC [TIVOZANIB] : 9.3
Cc1ccc(Oc2ccc(Nc3ncnc4cccc(O[C@H](C)C(=O)N5CCOCC5)c34)cc2Cl)cn1 : 2.3
O=C(O)c1c(Cl)c2ccccc2n1Cc1ccc(Cl)c(Cl)c1 : 759
CCC(=O)N1CCN(C(=O)c2cc(Cc3n[nH]c(=O)c4ccccc34)ccc2F)CC1 : 251

Pending compound:
What value of solubility thermodynamic has been reported for the following compound? COc1cc(C(=O)NS(=O)(=O)c2ccccc2C)ccc1Cc1cn(C)c2ccc(C(=O)NCCc3ccccc3)cc12
144

----------
Test: in vitro
Conditions: Beagle, dog, plasma
MEASURED_PARAMETER: fraction unbound at 5 h
Form field (numeric): enter value without unit.

Here is how some molecules turned out for fraction unbound at 5 h.
CC(C)(C)OC(=O)NC[C@H]1CC[C@H](CNC(=O)c2cc(N3CCC(CCO)CC3)nc3ccccc23)CC1 : 0.0084
Cc1c(Sc2ccc(Cl)cc2)c2c(S(C)(=O)=O)cccc2n1CC(=O)O : 0.0256
CC(C)(C)NC(=O)NCCN1CCCC(NC(=O)c2cc(Cl)cc(Cl)c2)C1 (centres undefined) : 0.0633
C[C@H](c1nc2ncccc2c(=O)n1-c1ccc(Cl)cc1)N(CC1CCS(=O)(=O)CC1)C(=O)Cc1ccc(C(F)(F)F)c(F)c1 : 0.0544
N#Cc1cccc(-c2cc(C(F)(F)F)ccc2OCC(=O)O)c1 : 0.0358
CCCC(=O)Nc1ccc(OCC(O)CNC(C)C)c(C(C)=O)c1 (centres undefined) [ACEBUTOLOL] : 0.788
N[C@H]1CCN(c2c(Cl)cccc2/C=C2\SC(=O)NC2=O)C1 : 0.0581
CC(C)NCC(O)COc1ccc(COCCOC(C)C)cc1 (centres undefined) [BISOPROLOL] : 0.743
C[C@H](CO)Nc1[nH]c(SCc2ccccc2F)nc2nc(=O)sc1-2 : 0.0171
CC[C@H](CO)Nc1nc(SCc2ccccc2)nc2[nH]c(=O)sc12 : 0.0053

What value of fraction unbound at 5 h has been reported for the following molecule? O=C(NC12CC3CC(CC(C3)C1)C2)OCCNC1CCCCC1
0.16

What about Cc1c(CC(=O)O)c2cc(F)ccc2n1S(=O)(=O)c1ccc(S(C)(=O)=O)cc1 ?
0.0521
